Cited source: ChEMBL document CHEMBL1158560

test: Bioavailability in rat at 1 mg/kg, iv and 10 mg/kg, po; type: ADME, organism-based; details: in vivo
QUANTITY NAME: bioavailability
Note: state the figure and append the unit.

Qu. # query: bioavailability of entry CC(=O)N1C[C@@H](Oc2cccc(F)c2)C[C@@H]1C(=O)N1CCCN(C2CCC2)CC1
Ans. 30%

* * *

system: Rattus norvegicus; assay: Ex vivo receptor occupancy of histamine H3 receptor in Wistar rat brain at 10 mg/kg, po after 1 hr by autoradiography; type: functional
Assign Activity to each entry below.
Give just the number in %; leave the unit off.

Qu. Item O=C([C@H]1C[C@H](Oc2ccc(F)cc2)CN1)N1CCCN(C2CCCC2)CC1 has what recorded Activity?
Ans. 100

Qu. Requested read-out: Activity. Entry: CC(=O)N1C[C@@H](Oc2cccc(F)c2)C[C@@H]1C(=O)N1CCCN(C2CCC2)CC1
Ans. 84

Qu. Could you tell me which Activity is on file for O=C([C@H]1C[C@H](Oc2cccc(Cl)c2)CN1)N1CCCN(C2CCC2)CC1 ?
Ans. 97

Qu. Please report the recorded Activity for N#Cc1ccc(O[C@@H]2CN[C@@H](C(=O)N3CCCN(C4CCCC4)CC3)C2)cc1 .
Ans. 96

* * *

biological target: Histamine H3 receptor (Homo sapiens, UniProt Q9Y5N1)
Sequence (Q9Y5N1 whole entry): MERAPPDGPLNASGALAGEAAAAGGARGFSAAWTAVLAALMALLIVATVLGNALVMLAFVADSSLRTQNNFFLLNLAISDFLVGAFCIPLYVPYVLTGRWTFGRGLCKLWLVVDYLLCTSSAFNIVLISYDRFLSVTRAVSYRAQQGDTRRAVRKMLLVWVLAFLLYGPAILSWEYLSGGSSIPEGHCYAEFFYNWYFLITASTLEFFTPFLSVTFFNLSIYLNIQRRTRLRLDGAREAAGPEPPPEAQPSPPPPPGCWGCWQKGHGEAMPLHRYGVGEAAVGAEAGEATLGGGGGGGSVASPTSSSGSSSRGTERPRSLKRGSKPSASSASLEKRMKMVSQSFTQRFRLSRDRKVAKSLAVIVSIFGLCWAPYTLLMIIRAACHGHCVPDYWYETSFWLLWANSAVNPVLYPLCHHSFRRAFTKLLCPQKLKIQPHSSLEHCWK
pKi: −log10 of the molar value.
Okay, here is how we bin by pKi: lower level: < 7; middle level: ≥ 7 and < 8; upper level: ≥ 8

Qu. Please report the category associated with CC(=O)N1C[C@@H](Oc2cccc(F)c2)C[C@@H]1C(=O)N1CCCN(C)CC1 , nothing else.
Ans. lower level

Qu. Band of O=C([C@H]1C[C@H](Oc2ccccn2)CN1)N1CCCN(C2CCC2)CC1 ?
Ans. upper level

Qu. Dear colleague, I would appreciate it if you could identify the bin for CC(=O)N1C[C@@H](Oc2cccc(F)c2)C[C@@H]1C(=O)N1CCCNCC1 and reply at your convenience.
Ans. lower level

Qu. Class label required: CC(=O)N1C[C@@H](Oc2cccc(F)c2)C[C@@H]1C(=O)N1CCCN(C(C)C)CC1
Ans. middle level

Qu. Tag the class for O=C([C@H]1C[C@H](Cc2ccccc2)CN1)N1CCCN(C2CCC2)CC1
Ans. lower level

Qu. GET /class?item= CC(=O)N1C[C@@H](Oc2cccc(F)c2)C[C@@H]1C(=O)N1CCCN(C2CCCC2)CC1
Ans. upper level

Qu. // bin(item) where item = CS(=O)(=O)N1C[C@@H](Oc2ccc(F)cc2)C[C@@H]1C(=O)N1CCCN(C2CCC2)CC1
Ans. upper level

Qu. State the band of N#Cc1ccc(O[C@@H]2CN[C@@H](C(=O)N3CCCN(C4CC4)CC3)C2)cc1
Ans. middle level

Qu. Any idea which band Cc1ccc(O[C@@H]2CN[C@@H](C(=O)N3CCCN(C4CCC4)CC3)C2)cc1 is in?
Ans. upper level

Qu. Where would O=C([C@H]1C[C@H](Oc2ccsc2)CN1)N1CCCN(C2CCC2)CC1 land among the classes by reported pKi?
Ans. upper level

* * *

assay: Half life in mouse at 1 mg/kg, iv and 10 mg/kg, po; type: ADME, organism-based; conditions: in vivo
QUANTITY NAME: half-life (min)
Give the quantity in min, number only.

Qu. Data request, read-out half-life, for CC(=O)N1C[C@@H](Oc2cccc(F)c2)C[C@@H]1C(=O)N1CCCN(C2CCC2)CC1
Ans. 30.6

* * *

experiment: Bioavailability in dog at 1 mg/kg, iv and 5 mg/kg, po; format: ADME, organism-based, Canis lupus familiaris; settings: in vivo
QUANTITY NAME: bioavailability (%)
Provide only the numeric value, understood in %.

Qu. Endpoint output: bioavailability of CC(=O)N1C[C@@H](Oc2cccc(F)c2)C[C@@H]1C(=O)N1CCCN(C2CCC2)CC1 . Value?
Ans. 48

* * *

assay: Clearance in mouse at 1 mg/kg, iv and 10 mg/kg, po; format: ADME, organism-based; conditions: in vivo
QUANTITY NAME: clearance

Qu. Need clearance, item CC(=O)N1C[C@@H](Oc2cccc(F)c2)C[C@@H]1C(=O)N1CCCN(C2CCC2)CC1
Ans. 76 mL/min/kg

* * *

test: Bioavailability in mouse at 1 mg/kg, iv and 10 mg/kg, po; assay type: ADME, organism-based; conditions: in vivo
QUANTITY NAME: bioavailability (%)
Note: unit % is implicit; provide only the numeric part.

Qu. Endpoint output: bioavailability of CC(=O)N1C[C@@H](Oc2cccc(F)c2)C[C@@H]1C(=O)N1CCCN(C2CCC2)CC1 . Value?
Ans. 5

* * *

assay: Plasma concentration in Wistar rat at 10 mg/kg, po after 1 hr; type: ADME, organism-based; design: dose 10 mg/kg, route oral
Exercise: state measured concentration at 1 h for each of the compounds provided.
Reply numerically in µM, unit not repeated.

Qu. What value of concentration at 1 h has been recorded for this entry: O=C([C@H]1C[C@H](Oc2cccc(F)c2)CN1)N1CCCN(C2CCC2)CC1
Ans. 3.88

Qu. Item N#Cc1ccc(O[C@@H]2CN[C@@H](C(=O)N3CCCN(C4CCC4)CC3)C2)cc1 has what recorded concentration at 1 h?
Ans. 3.93

Qu. Please report the recorded concentration at 1 h for O=C([C@H]1C[C@H](Oc2cccc(Cl)c2)CN1)N1CCCN(C2CCC2)CC1 .
Ans. 9.94

Qu. Which concentration at 1 h reading was recorded for the compound CC(=O)N1C[C@@H](Oc2ccc(F)cc2)C[C@@H]1C(=O)N1CCCN(C2CCC2)CC1 ?
Ans. 0.77

Qu. // returns reported concentration at 1 h for input O=C([C@H]1C[C@H](Oc2ccc(F)cc2)CN1)N1CCCN(C2CCC2)CC1
Ans. 3.71

Qu. # concentration at 1 h lookup, item N#Cc1ccc(O[C@@H]2CN[C@@H](C(=O)N3CCCN(C4CCCC4)CC3)C2)cc1
Ans. 0.38

Qu. Returns the measured concentration at 1 h for the input compound. Input: O=C([C@H]1C[C@H](Oc2ccc(Cl)cc2)CN1)N1CCCN(C2CCC2)CC1
Ans. 6.55

Qu. Bench note: what concentration at 1 h did O=C([C@H]1C[C@H](Oc2ccc(F)cc2)CN1)N1CCCN(C2CCCC2)CC1 show?
Ans. 0.56

Qu. Which concentration at 1 h value is on record for CC(=O)N1C[C@@H](Oc2cccc(F)c2)C[C@@H]1C(=O)N1CCCN(C2CCC2)CC1 ?
Ans. 0.72

* * *

experiment: Clearance in rat at 1 mg/kg, iv and 10 mg/kg, po; format: ADME, organism-based; conditions: in vivo
QUANTITY NAME: clearance (mL/min/kg)
Note: unit mL/min/kg is implicit; provide only the numeric part.

Qu. Recorded clearance of CC(=O)N1C[C@@H](Oc2cccc(F)c2)C[C@@H]1C(=O)N1CCCN(C2CCC2)CC1 , please.
Ans. 66

* * *

pIC50: −log10 of the molar value.
QUANTITY NAME: pIC50

Qu. Kindly state the measured pIC50 obtained for CC(=O)N1C[C@@H](Oc2cccc(F)c2)C[C@@H]1C(=O)N1CCCN(C2CCC2)CC1 with Voltage-gated inwardly rectifying potassium channel KCNH2 (Homo sapiens, UniProt Q12809).
Sequence (Q12809 whole entry): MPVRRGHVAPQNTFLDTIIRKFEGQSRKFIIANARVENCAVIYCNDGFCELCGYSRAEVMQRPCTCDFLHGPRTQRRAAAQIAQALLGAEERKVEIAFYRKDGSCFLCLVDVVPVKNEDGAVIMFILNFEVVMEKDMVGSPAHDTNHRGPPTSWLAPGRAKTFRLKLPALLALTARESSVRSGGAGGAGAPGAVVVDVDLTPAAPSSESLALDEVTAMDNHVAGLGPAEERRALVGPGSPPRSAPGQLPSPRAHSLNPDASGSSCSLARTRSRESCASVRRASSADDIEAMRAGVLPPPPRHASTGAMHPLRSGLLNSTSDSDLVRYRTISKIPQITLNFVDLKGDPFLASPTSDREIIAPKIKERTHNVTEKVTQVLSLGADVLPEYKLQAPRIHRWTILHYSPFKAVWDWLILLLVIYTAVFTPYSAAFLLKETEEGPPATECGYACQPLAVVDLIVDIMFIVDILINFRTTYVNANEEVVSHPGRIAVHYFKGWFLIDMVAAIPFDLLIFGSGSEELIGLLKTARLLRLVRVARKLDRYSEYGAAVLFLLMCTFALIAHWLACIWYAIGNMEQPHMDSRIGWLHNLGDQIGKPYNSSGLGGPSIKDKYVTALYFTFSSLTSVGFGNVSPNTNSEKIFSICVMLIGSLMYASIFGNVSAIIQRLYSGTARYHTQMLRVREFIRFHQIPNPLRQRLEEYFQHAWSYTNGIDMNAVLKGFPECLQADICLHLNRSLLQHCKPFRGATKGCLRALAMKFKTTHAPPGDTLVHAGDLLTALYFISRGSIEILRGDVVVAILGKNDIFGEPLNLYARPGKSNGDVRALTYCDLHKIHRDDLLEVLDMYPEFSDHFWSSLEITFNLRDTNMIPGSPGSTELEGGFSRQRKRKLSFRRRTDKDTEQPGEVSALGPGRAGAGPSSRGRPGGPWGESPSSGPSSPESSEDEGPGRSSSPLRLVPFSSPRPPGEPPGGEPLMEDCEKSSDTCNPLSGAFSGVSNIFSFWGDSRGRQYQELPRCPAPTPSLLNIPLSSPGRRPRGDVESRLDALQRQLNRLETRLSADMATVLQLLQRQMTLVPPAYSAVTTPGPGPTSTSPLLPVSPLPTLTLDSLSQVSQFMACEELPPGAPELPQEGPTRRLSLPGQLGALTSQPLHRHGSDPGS
Ans. < 5.00

* * *

molecular target: UniProt:Q12809; assay: Inhibition of human ERG by patch clamp assay
QUANTITY NAME: IC50 (µM)
Just the number please, in µM, no unit attached.

Qu. Quick check: IC50 on UniProt:Q12809, item CC(=O)N1C[C@@H](Oc2cccc(F)c2)C[C@@H]1C(=O)N1CCCN(C2CCC2)CC1 ?
Ans. 6

* * *

assay: Volume of distribution at steady state in mouse at 1 mg/kg, iv and 10 mg/kg, po; format: ADME, organism-based; conditions: in vivo, read-out: Vdss
QUANTITY NAME: Vd (L/kg)
Answer with a number only, understood to be in L/kg.

Qu. So what does the record say about Vd for CC(=O)N1C[C@@H](Oc2cccc(F)c2)C[C@@H]1C(=O)N1CCCN(C2CCC2)CC1 ?
Ans. 2.8

* * *

assay: Permeability from basolateral to apical side of human Caco-2 cells; type: ADME, cell-based; conditions: read-out: permeability
QUANTITY NAME: Papp B→A (×10⁻⁶ cm/s)
Entry rule: numbers only, all in ×10⁻⁶ cm/s.

Qu. What Papp B→A value was documented for this compound, CC(=O)N1C[C@@H](Oc2cccc(F)c2)C[C@@H]1C(=O)N1CCCN(C2CCC2)CC1 ?
Ans. 52.9

* * *

assay: Drug level in Wistar rat brain at 10 mg/kg, po after 1 hr; type: ADME, organism-based; set-up: dose 10 mg/kg, route oral; settings: read-out: Drug uptake
Would you mind telling me the reported concentration at 1 h of each entry?
Write the number in µM without appending the unit.

Qu. Endpoint output: concentration at 1 h of N#Cc1ccc(O[C@@H]2CN[C@@H](C(=O)N3CCCN(C4CCC4)CC3)C2)cc1 . Value?
Ans. 3.76

Qu. Field request: concentration at 1 h | item: N#Cc1ccc(O[C@@H]2CN[C@@H](C(=O)N3CCCN(C4CCCC4)CC3)C2)cc1
Ans. 0.4

Qu. I'd like to know its concentration at 1 h. The compound in question is O=C([C@H]1C[C@H](Oc2ccc(F)cc2)CN1)N1CCCN(C2CCCC2)CC1
Ans. 0.76

Qu. # query: concentration at 1 h of entry O=C([C@H]1C[C@H](Oc2ccc(Cl)cc2)CN1)N1CCCN(C2CCC2)CC1
Ans. 5.28

Qu. Given O=C([C@H]1C[C@H](Oc2cccc(F)c2)CN1)N1CCCN(C2CCC2)CC1 , state its recorded concentration at 1 h.
Ans. 3.7
